- Assay System: mouse TMEM16A mutant V511A (Mus musculus, UniProt Q8BHY3, V511A)
- Construct: expressed in transfected cells; host or cells: HEK293T
- Protocol: Inside-out patch recording of 1PBC block, mutant V511A
- Type: cell-based
- Setup Conditions: -60 mV; 2 µM Ca2+

Compound String	IC50
N#Cc1c(C(F)(F)F)cc(O)n2c1nc1ccccc12	42.3 µM

---

- Assay System: mouse TMEM16A mutant T518A (Mus musculus, UniProt Q8BHY3, T518A)
- Construct: expressed in transfected cells; host or cells: HEK293T
- Protocol: Inside-out patch recording of 1PBC block, mutant T518A
- Format: cell-based
- Setup Conditions: T518A; V 0 mV
Property Name: IC50

Compound String	Endpoint Value
N#Cc1c(C(F)(F)F)cc(O)n2c1nc1ccccc12	5.67 µM

---

- Assay System: wild-type mouse TMEM16A (Mus musculus, UniProt Q8BHY3)
- Construct: expressed in transfected cells; host or cells: HEK293T
- Protocol: Inside-out patch recording of 1PBC block, wild-type TMEM16A
- Type: cell-based
- Setup Conditions: 60 mV; 2 µM Ca2+
pIC50: −log10 of the molar value. Values joined by “and” are separate entries in the source; they are usually repeats but may differ in a detail not shown here. Equal entries are not always repeated.

Compound String	Assay System	pIC50
N#Cc1c(C(F)(F)F)cc(O)n2c1nc1ccccc12	wild-type mouse TMEM16A (Mus musculus, UniProt Q8BHY3)	5.63 and 5.64

---

- Assay System: mouse TMEM16A mutant T518A (Mus musculus, UniProt Q8BHY3, T518A)
- Construct: expressed in transfected cells; host or cells: HEK293T
- Protocol: Inside-out patch recording of 1PBC block, mutant T518A
- Type: cell-based
- Setup Conditions: -120 mV; 2 µM Ca2+

Molecule	Assay System	IC50
N#Cc1c(C(F)(F)F)cc(O)n2c1nc1ccccc12 [1PBC]	mouse TMEM16A mutant T518A (Mus musculus, UniProt Q8BHY3, T518A)	21.5 µM

---

- Assay System: mouse TMEM16A mutant Q637A (Mus musculus, UniProt Q8BHY3, Q637A)
- Construct: expressed in transfected cells; host or cells: HEK293T
- Protocol: Inside-out patch recording of 1PBC block, mutant Q637A
- Type: cell-based
- Setup Conditions: Q637A; V -80 mV
pIC50: −log10 of the molar value.
Property Name: pIC50

Compound	Endpoint Value
N#Cc1c(C(F)(F)F)cc(O)n2c1nc1ccccc12 [1PBC]	5.28

---

- Assay System: mouse TMEM16A mutant G558P (Mus musculus, UniProt Q8BHY3, G558P)
- Construct: expressed in transfected cells; host or cells: HEK293T
- Protocol: Inside-out patch recording of 1PBC block, mutant G558P
- Type: cell-based
- Setup Conditions: G558P; V -80 mV
pIC50: −log10 of the molar value.
Property Name: pIC50

Molecule	Assay System	Endpoint Value
N#Cc1c(C(F)(F)F)cc(O)n2c1nc1ccccc12 [1PBC]	mouse TMEM16A mutant G558P (Mus musculus, UniProt Q8BHY3, G558P)	4.77

---

- Assay System: mouse TMEM16A mutant V599A (Mus musculus, UniProt Q8BHY3, V599A)
- Construct: expressed in transfected cells; host or cells: HEK293T
- Sequence (Q8BHY3 1-960 V599A): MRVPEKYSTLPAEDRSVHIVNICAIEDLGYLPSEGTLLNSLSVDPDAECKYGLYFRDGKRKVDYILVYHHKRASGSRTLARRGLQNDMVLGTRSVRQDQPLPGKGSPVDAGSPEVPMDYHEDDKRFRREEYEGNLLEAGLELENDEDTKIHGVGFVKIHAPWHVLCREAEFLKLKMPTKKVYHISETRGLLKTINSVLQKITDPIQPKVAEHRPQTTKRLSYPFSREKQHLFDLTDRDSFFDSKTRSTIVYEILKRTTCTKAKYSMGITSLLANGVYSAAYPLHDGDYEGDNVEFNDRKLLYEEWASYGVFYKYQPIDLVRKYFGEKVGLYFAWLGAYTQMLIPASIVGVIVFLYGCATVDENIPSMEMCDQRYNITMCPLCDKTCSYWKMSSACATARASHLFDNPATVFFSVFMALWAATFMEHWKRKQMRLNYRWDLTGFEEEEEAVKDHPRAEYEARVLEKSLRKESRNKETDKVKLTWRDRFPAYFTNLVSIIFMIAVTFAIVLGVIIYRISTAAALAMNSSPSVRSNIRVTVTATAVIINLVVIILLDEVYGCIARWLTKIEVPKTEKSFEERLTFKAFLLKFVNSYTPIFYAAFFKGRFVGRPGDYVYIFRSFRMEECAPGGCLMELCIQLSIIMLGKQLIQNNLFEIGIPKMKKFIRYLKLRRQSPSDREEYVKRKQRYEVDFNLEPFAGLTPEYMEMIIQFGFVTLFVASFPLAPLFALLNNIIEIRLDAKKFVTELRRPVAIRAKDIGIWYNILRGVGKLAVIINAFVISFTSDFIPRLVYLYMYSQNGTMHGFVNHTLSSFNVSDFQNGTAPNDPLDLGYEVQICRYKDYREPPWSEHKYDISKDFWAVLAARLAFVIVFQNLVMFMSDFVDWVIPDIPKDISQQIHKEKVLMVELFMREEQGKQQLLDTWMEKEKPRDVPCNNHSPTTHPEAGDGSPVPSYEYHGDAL
- Protocol: Inside-out patch recording of 1PBC block, mutant V599A
- Format: cell-based
- Setup Conditions: -40 mV; 15 µM Ca2+

Compound	IC50
N#Cc1c(C(F)(F)F)cc(O)n2c1nc1ccccc12 [1PBC]	87.5 µM
